Source of measurements: patent US20260216347A1

In this section we review reported log10(IC50) values for a set of compounds.
- system: IRAK3 (Homo sapiens)
- Construct: IRAK Endogenous HTRF Degradation Assay; endogenous in cells
- assay summary: IRAK3 biochemical binding assay (LanthaScreen Eu Kinase Binding, TR-FRET)
Values reflect log10 of reported IC50 (nM).

For orientation, consider the following solved cases.
Cc1cc(-c2cnc(Nc3cnn([C@H]4CCN(CCN5CCN(c6ccc(C7CCC(=O)NC7=O)cc6)C[C@H]5C)[C@@H](C)C4)c3)c3nccn23)c(F)cc1F (some centres unmarked); -0.19
O=C1CCC(c2ccc(N3CCN(CCN4CCC(n5cc(Nc6ncc(-c7cnn8c7CCCC8)n7ccnc67)cn5)CC4)CC3)cc2)C(=O)N1 (centres unmarked); -0.04
Cc1cc(-c2cnc(Nc3cnn(C4CCN(CCN5CCN(c6ccc(C7CCC(=O)NC7=O)cc6)CC5)CC4)c3)c3nccn23)c(F)cc1F (centres unmarked); 0.11
O=C1CCC(c2ccc(N3CCN(CCN4CCC(n5cc(Nc6ncc(-c7ccc8c(c7)NC(=O)CO8)n7ccnc67)cn5)CC4)CC3)cc2)C(=O)N1 (centres unmarked); 0.81
Cc1cc(-c2cnc(Nc3cnn(C4CCN(CCN5CCN(c6ccc(-n7cc(F)c(=O)[nH]c7=O)cc6)CC5)CC4)c3)c3nccn23)c(F)cc1F; -0.07
Cc1cc(-c2cnc(Nc3cnn(C4CCN(CCN5CCN(c6ccc(C7CCC(=O)NC7=O)cc6)C[C@H]5C)CC4)c3)c3nccn23)c(F)cc1F (some centres unmarked); 0.04
CS(=O)(=O)c1ccccc1-c1cnc(Nc2cnn(C3CCN(CCN4CCN(c5ccc(C6CCC(=O)NC6=O)cc5)CC4)CC3)c2)c2nccn12 (centres unmarked); 3.20
Cc1cc(-c2cnc(Nc3cnn(C4CCN(C(=O)CN5CCN(c6ccc7c(c6)C(=O)N(C6CCC(=O)NC6=O)C7=O)CC5)CC4)c3)c3nccn23)c(F)cc1F (centres unmarked); 0.66

IN: Sample Cc1cc(-c2cnc(Nc3cnn([C@H]4CC[C@@H](CCN5CCN(c6ccc(C7CCC(=O)NC7=O)cc6)C[C@@H]5C)CC4)c3)c3nccn23)c(F)cc1F (some centres unmarked) — what was its log10(IC50)?
OUT: 0.88

IN: And the next one, Cc1cc(-c2cnc(Nc3cnn([C@H]4CC[C@H](CCN5CCC(c6ccc(C7CCC(=O)NC7=O)cc6)CC5)CC4)c3)c3nccn23)c(F)cc1F (some centres unmarked) ?
OUT: 1.18

IN: Same for Cc1cc(-c2cnc(Nc3cnn([C@@H]4CCCN(CCN5CCN(c6ccc(C7CCC(=O)NC7=O)cc6)CC5)CC4)c3)c3nccn23)c(F)cc1F (single isomer, unassigned)
OUT: -0.32

###

- system: IRAK3-ePL (Homo sapiens, UniProt Q9Y616)
- Construct: expressed in transfected cells; host or cells: 293T CRBN OE/GSPT1 G575N KI cells, lentiviral transduction, puromycin selected
- assay summary: IRAK3-ePL overexpressing degradation assay (InCELL Hunter luminescence, dose response)
- Format: cell-based
- condition description: read-out: IRAK3 ePL degradation EC50
# note: boundary value 0.8 nM maps to class 0; DC50 below it maps to class 1

IN: Answer whether the compound Cc1cc(-c2cnc(Nc3cnn(C4CCN(CCN5[C@H](C)CN(c6ccc(C7CCC(=O)NC7=O)cc6)C[C@@H]5C)CC4)c3)c3nccn23)c(F)cc1F (stereo partly drawn) has DC50 strictly less than 0.8 nM
OUT: class 0

IN: Same question for Cc1cc(-c2cnc(Nc3cnn(C4CCN(CCN5[C@@H](C)CN(c6ccc(C7CCC(=O)NC7=O)cc6)C[C@@H]5C)CC4)c3)c3nccn23)c(F)cc1F (stereo partly drawn) please.
OUT: class 1

IN: Can you check Cc1cc(-c2cnc(Nc3cnn(C4CCN(CCN5CCN(c6ccc(C7CCC(=O)NC7=O)cc6)C[C@@H]5C)CC4)c3)c3nccn23)c(F)cc1F (stereo partly drawn) next?
OUT: class 1

###

compounds and their reported pIC50
- system: IRAK3 (Homo sapiens, UniProt Q9Y616)
- Construct: IRAK Endogenous HTRF Degradation Assay; endogenous in cells
- assay summary: IRAK3 biochemical binding assay (LanthaScreen Eu Kinase Binding, TR-FRET)
- Method: Example B3. IRAK3 Biochemical Binding Assay The LanthaScreen® Eu Kinase Binding assay was performed as described by the vendor (ThermoFisher Scientific Waltham, MA). […] TR-FRET signal of the interaction (λex340/λem 665/λem 615) was read at room temperature with a delay time of 100 ρs and an integration time of 200 ρs using an Envision plate reader. […] Using these assays, IC50, Dmax, EC50, and DC50 values of the following compounds were determined. […]
Please keep in mind that pIC50 is minus log10 of the molar concentration; only the number is needed.

Cc1cc(-c2cnc(Nc3cnn(C4CCN(CCN5CCN(c6ccc(C7CCC(=O)NC7=O)cc6)CC5)CC4)c3)c3nccn23)ccc1F (stereo not drawn) [Compound 33]; 7.92

// switching to the query compound
IN: Return pIC50 measured with IRAK3 (Homo sapiens, UniProt Q9Y616) given this compound: Cc1cc(-c2cnc(Nc3cnn([C@H]4C[C@H](CN5CCN(c6ccc(C7CCC(=O)NC7=O)cc6)CC5)C4)c3)c3nccn23)c(F)cc1F (stereo partly drawn) [Compound 99]
OUT: 9.36

###

Reported IRAK3 HTRF degradation Ymin is given for each of the following molecules.
- system: IRAK3 (Homo sapiens)
- Construct: IRAK Endogenous HTRF Degradation Assay; endogenous in cells
- Sequence (Q9Y616 1-596): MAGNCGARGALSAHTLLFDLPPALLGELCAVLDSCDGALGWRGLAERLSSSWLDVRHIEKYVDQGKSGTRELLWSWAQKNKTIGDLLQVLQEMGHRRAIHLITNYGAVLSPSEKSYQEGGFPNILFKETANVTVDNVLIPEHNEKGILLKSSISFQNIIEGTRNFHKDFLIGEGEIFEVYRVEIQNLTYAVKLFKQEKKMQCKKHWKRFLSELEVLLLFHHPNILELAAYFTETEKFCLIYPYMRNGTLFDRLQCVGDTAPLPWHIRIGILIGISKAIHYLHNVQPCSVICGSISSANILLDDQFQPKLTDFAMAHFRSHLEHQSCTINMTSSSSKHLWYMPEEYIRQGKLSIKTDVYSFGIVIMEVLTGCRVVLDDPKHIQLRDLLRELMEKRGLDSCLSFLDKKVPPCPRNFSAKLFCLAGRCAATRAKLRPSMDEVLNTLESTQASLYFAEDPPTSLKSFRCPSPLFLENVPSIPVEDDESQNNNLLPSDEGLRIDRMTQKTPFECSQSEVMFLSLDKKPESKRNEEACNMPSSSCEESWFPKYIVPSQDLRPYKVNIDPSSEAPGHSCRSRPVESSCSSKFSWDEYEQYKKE
- assay summary: IRAK endogenous HTRF degradation assay (Total-IRAK3 HTRF kit)
- Format: cell-based
- condition description: overnight incubation, lowest percentage of protein remaining
Respond with the bare value in %.

Here's what some known entries look like.
Cc1cccc(-c2cnc(Nc3cnn(C4CCN(CCN5CCN(c6ccc7c(c6)C(=O)N(C6CCC(=O)NC6=O)C7=O)CC5)CC4)c3)c3nccn23)c1 (stereo not drawn); 18
Cc1cc(-c2cnc(Nc3cnn(C4CCN(CCN5CCN(c6ccc(C7CCC(=O)NC7=O)cc6)CC5)CC4)c3)c3nccn23)c(F)cc1F (stereo not drawn); 9
O=C1CCC(N2C(=O)c3ccc(N4CCN(C(=O)CN5CCC(n6cc(Nc7ncc(-c8ccc9c(c8)NC(=O)CO9)n8ccnc78)cn6)CC5)CC4)cc3C2=O)C(=O)N1 (stereo not drawn); 25
Cc1cc(-c2cnc(Nc3cnn(C4CCN(CCN5CCN(c6ccc(C7CCC(=O)NC7=O)c(F)c6)CC5)CC4)c3)c3nccn23)c(F)cc1F (stereo not drawn); 11
Cc1cccc(-c2cnc(Nc3cnn(C4CCN(CCCCN5CCN(c6ccc(C7CCC(=O)NC7=O)cc6)CC5)CC4)c3)c3nccn23)c1 (stereo not drawn); 11
Cc1cc(-c2cnc(Nc3cnn(C4CCN(CCN5CCN(c6ccc([C@]7(C)CCC(=O)NC7=O)cc6)CC5)CC4)c3)c3nccn23)c(F)cc1F; 64

IN: Value wanted: IRAK3 HTRF degradation Ymin (IRAK3 (Homo sapiens)) of entry Cc1cc(-c2cnc(Nc3cnn(C4CCN(CCN5CCN(c6cccc(C7CCC(=O)NC7=O)c6)CC5)CC4)c3)c3nccn23)c(F)cc1F (stereo not drawn)
OUT: 40

IN: Lookup O=C1CCC(c2ccc(N3CCN(CCN4CCC(n5cc(Nc6ncc(-c7cccc(F)c7)n7ccnc67)cn5)CC4)CC3)cc2)C(=O)N1 (stereo not drawn)
OUT: 11

IN: How about Cc1cc(-c2cnc(Nc3cnn(C4CCN(CC(=O)N5CCN(c6ccc(C7CCC(=O)NC7=O)cc6)CC5)CC4)c3)c3nccn23)c(F)cc1F (stereo not drawn) ?
OUT: 15

IN: Cc1cc(-c2cnc(N[C@H]3CCN(C4CCN(CCN5CCN(c6ccc(C7CCC(=O)NC7=O)cc6)CC5)CC4)C3)c3nccn23)c(F)cc1F (stereo partly drawn) , same question.
OUT: 96

IN: Same lookup for Cc1cc(-c2cnc(Nc3cnn([C@@H]4CCN(CCN5CCN(c6ccc(C7CCC(=O)NC7=O)cc6)CC5)[C@H](C)C4)c3)c3nccn23)c(F)cc1F (stereo partly drawn) , please.
OUT: 14

IN: Try the molecule Cc1cc(-c2cnc(Nc3cnn([C@H]4CC[C@@H](CN5CCN(c6ccc(C7CCC(=O)NC7=O)cc6)CC5)CC4)c3)c3nccn23)c(F)cc1F (relative stereo)
OUT: 13
